target.desc: T1, PD-1 (UniProt Q15116 25-170, limits assumed)
T1 construct: also called PD-1 protein
assay.name: SPR; set-up and antigen form not restated
The entries below are paired with their reported kon.

binder	unit.descriptor	kon
NB194-P29-z5 (Fc fusion, not shown: IgG4 constant region of vector pCDNA3.4-IgG4) heavy: QVQLVESGGGLVQPGGSLRLSCSASGHSFSIYDMGWFRQAPDKERESVAVINFGRGTTYYAESVKGRFTISRDNAKNTVYLQMNSLRAEDTAVYSCGIDRRQYGLGIPPLADHWGQGSQVTVSS	M⁻¹ s⁻¹	121000
NB194-P29-z4 (Fc fusion, not shown: IgG4 constant region of vector pCDNA3.4-IgG4) heavy: QVQLVESGGGLVQPGGSLRLSCTASGHSFSIYDMGWFRQAADKERESVAVINFGRGTTYYAESVKGRFTISRDNAKNTVYLQMNSLRAEDTAVYSCGIDRRQYGLGIPPLADHWGQGSQVTVSS	M⁻¹ s⁻¹	117000
NB194-P29-z1 (Fc fusion, not shown: IgG4 constant region of vector pCDNA3.4-IgG4) heavy: QVQLVESGGGLVQPGGSLRLSCSASGHSFSIYDMGWFRQAADKERESVAVINFGRGTTYYAESVKGRFTISRDNAKNTVYLQMNSLRAEDTAVYSCGIDRRQYGLGIPPLADHWGQGSQVTVSS	M⁻¹ s⁻¹	117000
NB194-P29-z2 (Fc fusion, not shown: IgG4 constant region of vector pCDNA3.4-IgG4) heavy: QLQLVESGGGLVQPGGSLRLSCSASGHSFSIYDMGWFRQAADKERESVAVINFGRGTTYYAESVKGRFTISRDNAKNTVYLQMNSLRAEDTAVYSCGIDRRQYGLGIPPLADHWGQGSQVTVSS	M⁻¹ s⁻¹	129000

Entry source: patent EP4269437A1
